Entry source: DBAASP

These records show MIC for Staphylococcus aureus KCTC 1621.
All answers are understood in µM, so give the number only.

compound: CC[C@H](C)[C@H](NC(=O)[C@@H](N)CCCCN)C(=O)N[C@@H](CCCCN)C(=O)N[C@@H](CC(C)C)C(=O)N[C@@H](Cc1ccccc1)C(=O)N[C@@H](CCCCN)C(=O)N[C@@H](CCCCN)C(=O)N[C@@H](Cc1c[nH]c2ccccc12)C(=O)N1CCC[C@H]1C(=O)N[C@@H](CCCCN)C(=O)N[C@@H](Cc1ccccc1)C(=O)N[C@@H](CC(C)C)C(=O)N[C@@H](Cc1cnc[nH]1)C(=O)N[C@@H](CC(C)C)C(=O)N[C@@H](C)C(=O)N[C@@H](CCCCN)C(=O)N[C@@H](CCCCN)C(=O)N[C@@H](Cc1ccccc1)C(N)=O [KIKLFKKWPKFLHLAKKF]
value-unit: µM
MIC: 2

Now look at this entry.
Problem: // returns reported MIC for input CC(C)C[C@H](NC(=O)[C@H](CC(C)C)NC(=O)[C@H](CCCCN)NC(=O)[C@H](CCCCN)NC(=O)[C@H](CC(C)C)NC(=O)[C@H](CC(C)C)NC(=O)[C@H](CCCCN)NC(=O)[C@H](CC(C)C)NC(=O)[C@H](Cc1c[nH]c2ccccc12)NC(=O)[C@H](CCCCN)NC(=O)[C@H](CCCCN)NC(=O)[C@H](CC(C)C)NC(=O)[C@H](CC(C)C)NC(=O)[C@H](CCCCN)NC(=O)[C@H](CCCCN)NC(=O)[C@H](CC(C)C)NC(=O)[C@@H](N)CCCCN)C(=O)N[C@@H](CCCCN)C(N)=O [KLKKLLKKWLKLLKKLLK]
Result: 8

----------
These records show MIC for Candida albicans ATCC 10231.
All answers are understood in µM, so give the number only.

smiles-string: CC[C@H](C)[C@H](NC(=O)[C@H](CCCN=C(N)N)NC(=O)[C@@H]1CCCN1C(=O)[C@H](CC(C)C)NC(=O)[C@H](Cc1ccccc1)NC(=O)[C@H](CCCCN)NC(=O)[C@H](CO)NC(=O)[C@H](Cc1ccccc1)NC(=O)[C@H](Cc1c[nH]c2ccccc12)NC(=O)[C@@H]1CCCN1C(=O)[C@@H](NC(=O)[C@@H](N)Cc1ccccc1)C(C)C)C(=O)N[C@@H](CC(C)C)C(N)=O
property-measured: MIC
number: 12
--
smiles-string: NC(=O)CC[C@H](NC(=O)[C@H](Cc1c[nH]c2ccccc12)NC(=O)[C@H](Cc1c[nH]c2ccccc12)NC(=O)[C@H](CCCN=C(N)N)NC(=O)[C@H](CCCN=C(N)N)NC(=O)[C@H](Cc1c[nH]c2ccccc12)NC(=O)[C@H](CCC(N)=O)NC(=O)[C@@H](N)CCCN=C(N)N)C(=O)N[C@@H](CCCN=C(N)N)C(N)=O
property-measured: MIC
number: 50

Now look at this entry.
Problem: Notebook entry, Candida albicans ATCC 10231 assay: MIC of CC[C@H](C)[C@H](NC(=O)[C@H](CCCNC(=N)N)NC(=O)CNC(=O)[C@H](CC(C)C)NC(=O)[C@H](Cc1ccccc1)NC(=O)[C@H](CCCCN)NC(=O)[C@H](CO)NC(=O)[C@H](Cc1ccccc1)NC(=O)[C@H](Cc1c[nH]c2ccccc12)NC(=O)[C@H](CCC(N)=O)NC(=O)[C@@H](NC(=O)[C@@H](N)Cc1ccccc1)C(C)C)C(=O)N[C@@H](CC(C)C)C(N)=O = ?
Result: 12
